The reader will find reported Kd values listed item by item below.
biological target: Human NRP2 (aa23-855) with C-terminal Avi-, Myc- and His-tags (Human) (UniProt O60462); experiment: SPR (ProteOn XPR36), antibody captured on anti-human Fab-kappa, NRP2 as analyte, 1:1 Langmuir fit
parameter measured: Kd (nM)

[[record]]
binder = "aNRP2-10v10 (antibody, V domains shown) VH: EVQLVQSGAEVKKPGATVKISCKVSGFNIKDYYVHWVQQAPGKGLEWMGRIDVEDDETKYAPKFQGRVTITADTSTDTAYMELSSLRSEDTAVYYCATPIYGAREAWFAYWGQGTLVTVSS VL: DIQMTQSPSSLSASVGDRVTITCTASSSVSSSYLHWYQQKPGKAPKLLIYRTSNLASGVPSRFSGSGSGTDFTLTISSLQPEDFATYYCHQYYRSPPTFGGGTKVEIK"
unit_abbreviation = "nM"
reported_result = 0.029

[[record]]
binder = "aNRP2-2v4 (antibody, V domains shown) VH: QVQLVQSGAEVKKPGASVKVSCKASGYTFTSYWMHWVRQAPGQGLEWMGVIHPNSASTFYNERFKTRATMTVDRSSSTAYMELSSLRSEDTAVYYCSRPGTVRRSDYWGQGTTVTVSS VL: DVVMTQSPLSLPVTLGQPASISCRSSQNIVHSTGNTYLEWYQQRPGQSPRLLIYKVSNRFSGVPDRFSGSGSGTDFTLKISRVEAEDVGVYYCFQGSHVPWTFGGGTKVEIK"
unit_abbreviation = "nM"
reported_result = 2.7

[[record]]
binder = "aNRP2-11v7 (antibody, V domains shown) VH: QVQLVQSGAEVKKPGASVKVSCKASGYTFTSFGISWVRQAPGQGLEWIGEIYPRSGNTYYNENFKGRATMTADKSTSTAYMELRSLRSDDTAVYYCARSSGYYGSTPFPYWGQGTLVTVSS VL: DIQMTQSPSSLSASVGDRVTITCRASQDISNYLNWYQQKPGKAVKLLIYYTSRLHSGVPSRFSGSGSGTDYTFTISSLQPEDIATYYCQQGNTLPWTFGGGTKVEIK"
unit_abbreviation = "nM"
reported_result = 0.95

[[record]]
binder = "aNRP2-10v5 (antibody, V domains shown) VH: EVQLVQSGAEVKKPGATVKISCKVSGFNIKDYYIHWVQQAPGKGLEWMGRIDVEDDETKYAPKFQGRVTITADTSTDTAYMELSSLRSEDTAVYYCATPIYGSREAWFAYWGQGTLVTVSS VL: DIQMTQSPSSLSASVGDRVTITCTASSSVSSSYLHWYQQKPGKAPKLLIYRTSNLASGVPSRFSGSGSGTDFTLTISSLQPEDFATYYCHQYYRSPPTFGGGTKVEIK"
unit_abbreviation = "nM"
reported_result = 0.2

[[record]]
binder = "aNRP2-1v3 (antibody, V domains shown) VH: QVQLVQSGAEVKKPGASVKVSCKASGYTFTSYWMHWVRQAPGQGLEWMGAIYPGNSDTSYNQQFKGRVTMTRDTSTSTVYMELSSLRSEDTAVYYCARRGGGYFDYWGQGTLVTVSS VL: DIQLTQSPSFLSASVGDRVTITCKASQNVGAAVAWYQQKPGKAPKLLIYSASNRYTGVPSRFSGSGSGTEFTLTISSLQPEDFATYYCQQYSSYPLLTFGGGTKVEIK"
unit_abbreviation = "nM"
reported_result = 17

